Each entry below carries its reported Fold affinity (KD) difference vs alkylated parent.
Target: T1, Recombinant human glypican-3 (aa 1-559), His-tagged, R&D Systems (human, UniProt P51654 25-559)
T1 construct: also called huGPC3; Hu GPC3-His
T1 sequence (P51654 other isoform, or with tags, fused parts or gaps): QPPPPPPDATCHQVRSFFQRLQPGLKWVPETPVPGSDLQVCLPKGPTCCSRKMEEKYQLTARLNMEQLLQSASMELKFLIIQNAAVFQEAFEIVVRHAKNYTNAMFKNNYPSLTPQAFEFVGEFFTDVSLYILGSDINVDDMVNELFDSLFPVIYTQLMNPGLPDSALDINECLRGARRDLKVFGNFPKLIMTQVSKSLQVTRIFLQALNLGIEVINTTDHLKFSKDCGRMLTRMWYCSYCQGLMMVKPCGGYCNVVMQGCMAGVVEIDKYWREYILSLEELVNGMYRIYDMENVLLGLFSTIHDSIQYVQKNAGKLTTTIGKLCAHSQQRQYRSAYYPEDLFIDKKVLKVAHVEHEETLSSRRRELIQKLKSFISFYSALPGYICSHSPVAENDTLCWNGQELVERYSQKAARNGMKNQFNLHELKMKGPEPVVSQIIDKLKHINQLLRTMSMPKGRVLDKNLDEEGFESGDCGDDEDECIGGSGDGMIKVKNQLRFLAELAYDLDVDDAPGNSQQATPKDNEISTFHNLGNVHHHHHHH
Assay: SPR, Biacore T100, GPC3-His immobilised, 1:1 fit
Description: The binding affinities of the alkylated GPC3 DG mutant adnectins for human and murine GPC3 were further evaluated by Biacore T100 using HBS-P+ running buffer with direct immobilization of human and mouse GPC3 proteins [Hu (Fc 2,3) and Mu (Fc 4) GPC3-His (R&D Systems)] with a 200-1.56 nM series injected for 180s association, 600s dissociation.
measurement_type: Fold affinity (KD) difference vs alkylated parent (fold)

binder | quantity_unit | reported_value
ADX_6077_F02 DG→DV mutant, alkylated (designed binder, C-terminal cysteine alkylated, also called P1-055672) GVSDVPRDLEVVAATPTSLLISWSDDYHAHRYYRITYGETGGNSPVQEFTVPGEHVTATISGLKPGVDYTITVYAVTYDVEKAATDWSISINYRTPC | fold | 7.8
ADX_6077_F02 DG→DL mutant, alkylated (designed binder, C-terminal cysteine alkylated, also called P1-055671) GVSDVPRDLEVVAATPTSLLISWSDDYHAHRYYRITYGETGGNSPVQEFTVPGEHVTATISGLKPGVDYTITVYAVTYDLEKAATDWSISINYRTPC | fold | 3.9
ADX_6077_F02 DG→SG mutant, alkylated (designed binder, C-terminal cysteine alkylated, also called P1-055668) VSDVPRDLEVVAATPTSLLISWSDDYHAHRYYRITYGETGGNSPVQEFTVPGEHVTATISGLKPGVDYTITVYAVTYSGEKAATDWSISINYRTPC | fold | 4.2
ADX_6077_F02 alkylated (designed binder, C-terminal cysteine (of PC) alkylated with iodoacetamide, also called alkylated (capped) Adnectin; alkylated parent) MGVSDVPRDLEVVAATPTSLLISWSDDYHAHRYYRITYGETGGNSPVQEFTVPGEHVTATISGLKPGVDYTITVYAVTYDGEKAATDWSISINYRTPCHHHHHH | fold | 1
ADX_6077_F02 DG→DA mutant, alkylated (designed binder, C-terminal cysteine alkylated, also called P1-055660; PI-055660) GVSDVPRDLEVVAATPTSLLISWSDDYHAHRYYRITYGETGGNSPVQEFTVPGEHVTATISGLKPGVDYTITVYAVTYDAEKAATDWSISINYRTPC | fold | 4.5
ADX_6077_F02 DG→AG mutant, alkylated (designed binder, C-terminal cysteine alkylated, also called P1-055669) GVSDVPRDLEVVAATPTSLLISWSDDYHAHRYYRITYGETGGNSPVQEFTVPGEHVTATISGLKPGVDYTITVYAVTYAGEKAATDWSISINYRTPC | fold | 4.2
ADX_6077_F02 DG→DS mutant, alkylated (designed binder, C-terminal cysteine alkylated, also called P1-055667) GVSDVPRDLEVVAATPTSLLISWSDDYHAHRYYRITYGETGGNSPVQEFTVPGEHVTATISGLKPGVDYTITVYAVTYDSEKAATDWSISINYRTPC | fold | 4.2
ADX_6077_F02 DG→EG mutant, alkylated (designed binder, C-terminal cysteine alkylated, also called P1-055673) GVSDVPRDLEVVAATPTSLLISWSDDYHAHRYYRITYGETGGNSPVQEFTVPGEHVTATISGLKPGVDYTITVYAVTYEGEKAATDWSISINYRTPC | fold | 5.3
